Sourced from ChEMBL document CHEMBL1201862

targetUnderTest: Caspase-3 (Homo sapiens, UniProt P42574);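 further: Dose-response selectivity test against caspase-3 for candidate inhibitors of sentrin-specific proteases (SENPs)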
Assay type: functional
Activity calls are given as the source filed them.
measuredProperty: IC50

Reference set (4 entries):
# chemicalSmiles, IC50
data = [
    ("Cc1cccc(C(=O)Nc2sc(C)c(-c3ccccc3)c2C#N)c1", "38.5 µM (active)"),
    ("CC(C)N(C(=O)Nc1ccc2nsnc2c1)C(C)C", "5.81 µM (active)"),
    ("Cc1ccc(C)c(NC(=O)c2cc(-c3cc(C)ccc3O)[nH]n2)c1", "22.3 µM (active)"),
    ("COc1ccc(/C=C/C(=O)c2ccccc2O)cc1", "23.1 µM (active)"),
]

Please find the next molecule below.
Provide IC50 value for the following molecule: `CCN(CC)c1ccc(C(=O)OCC(=O)Nc2sccc2C#N)cc1`
37.3 µM (active)

---

Reported EC50 values for the following compounds.
targetUnderTest: UniProt P38532
Sequence (P38532 whole entry): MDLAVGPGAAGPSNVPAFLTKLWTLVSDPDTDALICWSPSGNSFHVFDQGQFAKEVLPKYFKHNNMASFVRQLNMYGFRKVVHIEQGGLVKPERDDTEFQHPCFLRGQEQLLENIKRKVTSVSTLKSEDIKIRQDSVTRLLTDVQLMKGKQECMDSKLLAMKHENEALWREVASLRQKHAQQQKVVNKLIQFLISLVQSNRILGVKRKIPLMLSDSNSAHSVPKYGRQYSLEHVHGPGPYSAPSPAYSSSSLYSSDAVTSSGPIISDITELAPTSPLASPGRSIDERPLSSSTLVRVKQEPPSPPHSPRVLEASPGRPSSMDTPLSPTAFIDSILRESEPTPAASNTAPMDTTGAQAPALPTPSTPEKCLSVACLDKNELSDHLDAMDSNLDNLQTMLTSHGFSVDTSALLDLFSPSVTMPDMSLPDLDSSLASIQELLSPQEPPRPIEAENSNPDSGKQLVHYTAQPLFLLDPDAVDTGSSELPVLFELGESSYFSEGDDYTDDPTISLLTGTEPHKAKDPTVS
experimentNotes: inhibition of MG132-induced HSE-luciferase signal, confirmation, cell-based, NIH3T3, luminescence, dose retest (AID 2382);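 further: NIH3T3 fibroblasts with HSF1-driven luciferase reporter stressed by proteasome inhibitor MG132; luminescence from HSF1-driven luciferase expression after 8 hours of MG132 stress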
Type: functional
Activity calls are given as the source filed them.

Here is how some compounds turned out for EC50.
# chemicalSmiles, EC50
data = [
    ("CN(C)S(=O)(=O)c1ccc(-c2csnn2)s1", "> 195 µM (not active)"),
    ("COc1ccc(Cl)cc1N(CC(=O)N1CCN(Cc2ccccc2)CC1)S(C)(=O)=O", "> 195 µM (not active)"),
    ("Cc1cc(C(=O)Nc2ccc(Cl)cc2)c(C)n1-c1ccccc1", "< 0.16 µM (active)"),
    ("NC(=O)COc1ccc(-n2cnnn2)cc1", "> 195 µM (not active)"),
]

Let me know recorded EC50 for `NS(=O)(=O)c1ccc(NC2=CC(=O)C(=O)c3ccccc32)cc1` , thanks.
> 195 µM (not active)

Answer with the recorded EC50 of `CCOC(=O)Cn1nc(C)c(NC(=O)COc2ccc([N+](=O)[O-])cc2)c1C` only.
> 195 µM (not active)

Give EC50 for `COc1cc(NC(=O)CN(C)S(=O)(=O)c2ccc(-c3ccc(O)nn3)s2)cc(OC)c1`
> 195 µM (not active)

Check the records and state EC50 for `Cn1cccc1C(=O)NC(=O)COC(=O)C12CC3CC(CC(O)(C3)C1)C2`
0.372 µM (active)

Return reported EC50. Input compound: `O=C(O)c1cccc(NC(=O)c2ccccc2NC(=O)c2ccccc2F)c1`
> 195 µM (not active)

Give EC50 for `COc1ccc(O)c(C2=Nc3ccccc3N=C(c3cccs3)C2)c1`
> 195 µM (not active)

State, in one line, measured EC50 of `COc1cc(CCCN2CCNC[C@@H]2Cc2ccc(O)cc2)cc(OC)c1OC`
> 195 µM (not active)

---

experimentNotes: P. falciparum Dd2 growth inhibitors, dose response, SYBR Green, cherry-picked samples (AID 1159567)
Format: functional, cell-based
Calls of active or inactive are those of the source.
The molecules listed here are annotated with their AC50.

# chemicalSmiles, AC50
rows = [
    ("N#C[C@H]1[C@H](c2ccc(C#CC3CCCCC3)cc2)[C@@H](CO)N1C(=O)Nc1ccc(F)cc1", "4.35 µM (active)"),
    ("C[C@H](CO)N1C[C@H](C)[C@H](CN(C)S(=O)(=O)c2ccccc2)Oc2ccc(NC(=O)Cc3cn(C)c4ccccc34)cc2C1=O", "3.2 µM (active)"),
    ("N#C[C@@H]1[C@H](c2ccc(C#CC3CCCCC3)cc2)[C@H](CO)N1C(=O)Nc1ccc(F)cc1", "5.43 µM (active)"),
]

# next molecule below
Provide measured AC50 value, entry: `COc1ccc2c3c([nH]c2c1)[C@H](CO)N(C(C)=O)CC31CCN(C(=O)Nc2ccccc2F)CC1`
< 0.3 µM (active)
